B1: DCAF4 (parent)
chain: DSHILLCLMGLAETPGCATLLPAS

# Variants of: B1
# measurement_notes: protein stability index of a GFP-peptide fusion (GPS, HEK-293T) (PSI 1-6); higher = more stable;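 further: lentivirally expressed fusions sorted by FACS into six bins by GFP to DsRed ratio, PSI derived from sequencing read proportions per bin multiplied by bin number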
# condition_parameters: c terminus: a fixed tail appended
Label MET when protein stability index is at or above 3; anything below gets NOT MET.

Lookup: I'd appreciate it if you could say whether `C17N` has protein stability index at least equal to 3.
Found: NOT MET

Lookup: Check this variant for protein stability index at or above 3: `L5S`
Found: NOT MET

Lookup: Can `A23E` be said to have protein stability index at or above 3?
Found: MET

Lookup: Is protein stability index for `P15F` at or above 3?
Found: MET

Lookup: Is the recorded value of protein stability index equal to or greater than 3 for this variant? `T14Y`
Found: MET

Lookup: Test whether the variant `L8Y` records protein stability index of 3 or higher.
Found: MET

Lookup: Identify whether the reported protein stability index of the following variant is 3 or greater: `L11Y`
Found: MET

Lookup: In plain terms: is recorded protein stability index at least 3 for `C17Y` ?
Found: NOT MET

Lookup: Assess whether reported protein stability index for `G16R` sits at 3 or higher.
Found: NOT MET

Lookup: Evaluate `H3R` : protein stability index at minimum 3?
Found: MET

Lookup: API: above_or_equal(metric=protein stability index, cutoff=3) for item `H3C`
Found: NOT MET

Lookup: Assess whether reported protein stability index for `M9V` sits at 3 or higher.
Found: NOT MET

Lookup: Is protein stability index for `A12F` at or above 3?
Found: MET

Lookup: Quick check: does `L5D` have protein stability index greater than or equal to 3?
Found: NOT MET

Lookup: Answer whether protein stability index of `A18Y` is greater than or equal to 3.
Found: NOT MET

Lookup: I'd appreciate it if you could say whether `L11W` has protein stability index at least equal to 3.
Found: NOT MET

Lookup: API: above_or_equal(metric=protein stability index, cutoff=3) for item `L21F`
Found: MET

Lookup: I'd appreciate it if you could say whether `G16C` has protein stability index at least equal to 3.
Found: MET

Lookup: Is the recorded value of protein stability index equal to or greater than 3 for this variant? `E13H`
Found: NOT MET

Lookup: Hello, I need to know if `C17T` has measured protein stability index not below 3. Thanks!
Found: MET

Lookup: For this variant, is measured protein stability index 3 or higher? `S2W`
Found: NOT MET

Lookup: Reported protein stability index at or above 3? `E13V`
Found: MET

Lookup: Hi team, for `S24C` , is the recorded protein stability index at or above 3?
Found: MET

Lookup: // inclusive: protein stability index at least 3? input: `C7Q`
Found: NOT MET

Lookup: Quick check, protein stability index >= 3? `H3I`
Found: MET

Lookup: Entry `T14D` : is its protein stability index no less than 3?
Found: NOT MET

Lookup: Given `L20Q` , state whether its protein stability index is at least 3.
Found: NOT MET

Lookup: Is the recorded value of protein stability index equal to or greater than 3 for this variant? `C17R`
Found: NOT MET

Lookup: Is protein stability index at least 3? Consider `G10E`
Found: NOT MET

Lookup: Does the variant `I4K` have recorded protein stability index that is 3 or more?
Found: NOT MET

Lookup: Please tell me: is the variant `L6N` at or over 3 in terms of protein stability index?
Found: NOT MET

Lookup: Does protein stability index meet or surpass 3 for `G16P` ?
Found: MET

Lookup: Decide: protein stability index of `S2G` >= 3?
Found: MET

Lookup: // inclusive: protein stability index at least 3? input: `I4H`
Found: NOT MET

Lookup: Tell me whether protein stability index is at least 3 here: `G16Y`
Found: NOT MET

Lookup: Could you please find out whether `A18F` has protein stability index that meets 3 or exceeds it?
Found: NOT MET

Lookup: # bool: protein stability index of `L6W` >= 3
Found: MET

Lookup: Quick check, protein stability index >= 3? `E13N`
Found: NOT MET

Lookup: Can `L20N` be said to have protein stability index at or above 3?
Found: NOT MET

Lookup: Please check the record `L6I` and state if its protein stability index is at or above 3.
Found: NOT MET

Lookup: For this variant, is measured protein stability index 3 or higher? `L21A`
Found: MET

Lookup: # check: protein stability index of `S24A` is greater than or equal to 3
Found: NOT MET

Lookup: Hi team, for `L20R` , is the recorded protein stability index at or above 3?
Found: NOT MET

Source listed as the supplement of paper PMC10567573.
